# Tested on: COLO 205
# assay: NCI tumour cell line growth inhibition, 48 h
Active and inactive are the calls of the source. Rule as the data show it: active = GI50 up to about 1.1 µM and inactive = higher.
Return exactly one item of Y for active, N for inactive

Worked examples, 6 compounds total:
compound	group-label
O=S1(=O)OC(c2ccc(O)cc2)(c2ccc(O)cc2)c2ccccc21	N
Nc1cc2c3c(cccc3c1)C(=O)N(c1ccc(OCCN3CCCC3)cc1)C2=O	N
CNC(=O)c1ccc(C(=O)NCCCCCN(O)C(=O)CCC(=O)NCCCCCN(O)C(=O)CCC(=O)NCCCCCN(O)C(C)=O)c(O)c1O	N
CC(C)c1nc(Cl)c(Cl)c(Cl)n1	N
COc1ccc2c(CN3CCCCC3CO)cc3cc(OC)c(OC)cc3c2c1 (stereo not given)	N
CCN(CC)c1ccc2cc3ccc(N(CC)CC)cc3[o+]c2c1	Y

Challenge: Which outcome was entered for the compound "O=c1c(-c2ccc(O)cc2)coc2cc(O)cc(O)c12" in this test?
Response given: N

Challenge: Which outcome was entered for the compound NC(=S)N/N=C1\CCCC1C(O)(C(F)(F)Cl)C(F)(F)Cl (stereo not given) in this test?
Response given: N

Challenge: Which outcome was entered for the compound "CC1=C(c2cc(C(=O)Nc3nccs3)nc(NC#N)n2)Sc2ccccc2N1" in this test?
Response given: N

Challenge: Which outcome was entered for the compound "O=NN1CCN=C1c1ccc([N+](=O)[O-])cc1" in this test?
Response given: N
